Assay overview: Pharmacokinetic assessment in male Wistar rats (i.v.)
Format: in vivo, rat
Applied conditions: rat, liver, iv, 8 3.5 mg/kg i.v., 2.2 h, read-out: Liver concentration of 8
Endpoint label: concentration at 2.2 h

Inquiry: Could you please provide reported concentration at 2.2 h for "C[C@H]1Oc2ccc(F)cc2N(CCO)C(=O)[C@H]1NC(=O)[C@@](C)(O)C(=O)NCC(F)(F)C(F)(F)F" ? Thanks!
Reply text: 298 ng/g

====

Assay overview: Pharmacokinetic assessment in male Wistar rats (i.v.)
Type: in vivo, rat
Applied conditions: rat, plasma, iv, 8 3.5 mg/kg i.v., 7 h, read-out: Plasma concentration of 8
Method: For PK evaluation, the compounds were administered i.p to male C57BL/6 mice in suspension (gelatine/saline 7.5%/0.62% in water) using an administration volume of 4 mL/kg. […] All samples were analyzed using protein precipitation followed by LC-MS/MS analysis. […] 10 μL supernatant was analyzed by LC/MS analysis. […] Compounds mass transitions monitored were m/z 320.7 to 119.9. PK parameters for all studies were calculated using Phoenix WinNonlin Software. […]
Endpoint label: concentration at 7 h

Inquiry: Return value of concentration at 7 h for input C[C@H]1Oc2ccc(F)cc2N(CCO)C(=O)[C@H]1NC(=O)[C@@](C)(O)C(=O)NCC(F)(F)C(F)(F)F [Compound 8] , no commentary.
Reply text: 18.4 ng/mL

Taken from patent US10632127B2.
